Recorded glycan array binding signal (z-score) for the following binders
- TARGET: Gal(b1-4)GlcNAc(b1-3)Gal(b1-4)GlcNAc(b1-2)[Gal(b1-4)GlcNAc(b1-3)Gal(b1-4)GlcNAc(b1-6)]Man(a1-6)[Gal(b1-4)GlcNAc(b1-3)Gal(b1-4)GlcNAc(b1-2)Man(a1-3)]Man(b1-4)GlcNAc(b1-4)GlcNAc
- METHOD NOTES: glycan array binding signal (z-score within array); higher = stronger binding
- RECORDED CONDITIONS: glycan notation: IUPAC condensed, linker removed
This excerpt belongs to a sample that is enriched for the strongest signals.
Response field accepts a number only; no unit should be typed.

Answered examples (5):
BINDER	REPORTED
Pwp7 (Candida glabrata) (protein) MGSSHHHHHHSSGLVPRGSHMASKNPVDFPNLCQYPNLDGAVAGFDTEIYNADPSILINFSLWPILQFPKEWHKTIGRAITTQTNFKLPASDTTLFGVSIPTQNILIEFRGYFIPPKSGTYTFALYLTDDGSAMFLGNDAAFPCGNITSWSNPTNDQVSVSDYDPKKKTLTVYMVAGVAYPLRIAYYNREKGGSLTASFVDPDGLTHSDWNGYIWTLPSCDNCKYS	4.75
Epa15 (Candida glabrata) (protein) MGSSHHHHHHSSGLVPRGSHMASDPTTFPLGCSPEFTKTKKGLSMELYRYDYLPPGSYPCWDSAYLNPSYPRTGYKAKKLIATVDGVSGDINFKFNPKFGCKAIPDYLPSNFNYHEPITITNFTMILYGYFMPKTTAFHTFYVTADDLLFMNFGAGNAFDCCRREETADKFGNYAAYSVWGKKSLKNELTVYLHTGVYYPIRLFYNNRDYIAQLDIRFKTEHSNAIITNFTDYFYSVDDSSLGCPGLI	2.71
PfulAvr4 (Pseudocercospora fuligena) (protein) HHHHHHDYKDDDDKTYVQDKTPAFVCPAADIKTTKCLGPKDCLYPSPKTCNGYIQCSPADDSYLTGIIHEMPCPSGLLWNDNKKWCDWPENTTCGLVKSAGATEVDATKQGPTPGKYHG	1.38
PfulAvr4 2 (Pseudocercospora fuligena) (protein) HHHHHHDYKDDDDKAKPIKPFACPPKDFTTTKCQGPVDCLYANPLSCLGYIQCVCDDDACSTATPYAKSCPTGLAWVEKLKRCDGIKKSACPKKMYEGS	4.76
BC2LB (Burholderia cenocepacia), B4EH85_BURCJ (protein) MGSSHHHHHHSSGENLYFQGHMSQPFTHDDLYALLQLAGNDATAVQANGDQAVLDRMRQFMTAQLVEKLPQYDVFVDIATIPYSFDVGSWQNKVKTDAAGEVVACTVTWAGAPGVLPGAAAKFGVGAVVNYFSKATPH	11.3

Now look at this one.
Ask | Need glycan array binding signal (z-score) of LlpA (Burkholderia cenocepacia) (protein) MGSSHHHHHHSSGLVPRGSHKILGSNETLSAGNVVYSDNGQYHLAMQTDGNLVVYGPTGAVWQSQTSGSGGNRAVMQGDGNLVIYRADNTAAWSSKTAHPGAFLAVQDDGNVVIYWPRPAWASNTSDPATQQSAESKYLASGSTMSAGQTVTVAQYMLVFQADGNLVLYKNGGNPIWSTGTQGKGATYAVMQSDGNFVIYAGSTALWSTKTNGANGAQLVLQSDGNLVIYAPTAAWSTKFGLVTAPTSTSTSNNGPGSGICVGVCPPHPLNGNPFSPVGVGTTGLGFPTPGYPGAAF , thanks.
Reply | 0.339
